Where do the numbers come from? From ChEMBL document CHEMBL1129151.

- tgt: E-selectin (Homo sapiens, UniProt P16581)
- experimentDescription: In vitro ability to inhibit the adhesion of HL-60 cells to purified recombinant human Selectin E
measuredAttribute: IC50

Prompt line: May I ask what IC50 has been recorded for CCO[C@@H]1O[C@@H](CO)[C@@H](O[C@@H]2O[C@@H](CO)[C@H](O)C(O)[C@@H]2O)C(O[C@@H]2O[C@@H](C)[C@@H](O)[C@H](O)[C@@H]2O)[C@@H]1NC(=O)c1ccc2ccccc2c1 (single isomer, unassigned) ?
Response line: > 6.6 mM

Prompt line: Query: IC50; subject: CCO[C@@H]1O[C@@H](CO)[C@@H](O[C@@H]2O[C@H](C)[C@H](O)[C@H](O)[C@@H]2O)[C@H](O[C@@H]2O[C@@H](CO)[C@H](O)[C@H](O)[C@@H]2O)[C@@H]1NC(C)=O (stereo in doubt; 3)
Response line: 1.4 mM

Prompt line: What measured IC50 goes with CCO[C@@H]1O[C@@H](CO)[C@@H](O[C@@H]2O[C@H](C)[C@H](O)[C@H](O)[C@@H]2O)[C@H](O[C@@H]2O[C@@H](CO)[C@H](O)[C@H](O)[C@@H]2O)[C@@H]1NC(C)=O (stereo in doubt; 1) ?
Response line: > 6.6 mM

Prompt line: Quick one: IC50 of CCO[C@@H]1O[C@@H](CO)[C@@H](O[C@@H]2O[C@@H](CO)[C@H](O)C(O)[C@@H]2O)C(O[C@@H]2O[C@@H](C)[C@@H](O)[C@H](O)[C@@H]2O)[C@@H]1NC(C)=O (single isomer, unassigned) ?
Response line: > 6.6 mM

----------
- tgt: E-selectin (Homo sapiens, UniProt P16581)
- Sequence (P16581 whole entry): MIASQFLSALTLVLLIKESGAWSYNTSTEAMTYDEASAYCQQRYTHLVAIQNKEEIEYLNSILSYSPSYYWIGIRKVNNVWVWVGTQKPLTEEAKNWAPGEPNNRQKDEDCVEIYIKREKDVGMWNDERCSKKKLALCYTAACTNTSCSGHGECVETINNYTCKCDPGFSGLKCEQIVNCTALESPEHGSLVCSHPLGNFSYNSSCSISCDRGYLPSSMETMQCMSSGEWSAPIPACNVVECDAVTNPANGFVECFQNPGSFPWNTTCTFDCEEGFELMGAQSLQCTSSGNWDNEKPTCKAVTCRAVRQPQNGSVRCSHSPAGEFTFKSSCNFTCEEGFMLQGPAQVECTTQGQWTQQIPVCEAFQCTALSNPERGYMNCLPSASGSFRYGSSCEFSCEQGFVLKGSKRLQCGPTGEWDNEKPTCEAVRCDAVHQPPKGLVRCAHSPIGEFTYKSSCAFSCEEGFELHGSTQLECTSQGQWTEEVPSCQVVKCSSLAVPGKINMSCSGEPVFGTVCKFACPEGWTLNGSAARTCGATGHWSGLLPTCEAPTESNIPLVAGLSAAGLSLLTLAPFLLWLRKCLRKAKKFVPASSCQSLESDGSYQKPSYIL
- experimentDescription: In vitro ability to inhibit the adhesion of HL-60 cells to purified recombinant human Selectin E
measuredAttribute: IC50 (µM)
Your answer is read as µM, so omit the unit and give the number.

Prompt line: Dear colleague, I am looking for the recorded IC50 of the following compound: CCO[C@@H]1O[C@@H](CO)[C@@H](O[C@@H]2O[C@@H](C)[C@H](O)[C@H](O)[C@@H]2O)[C@H](O[C@@H]2O[C@@H](CO)[C@H](O)[C@H](O)[C@@H]2O)[C@@H]1NC(=O)c1ccc2ccccc2c1 (stereo in doubt; 4)
Response line: 2000
